Listed here: items and their measured melting point.
Structures can show the parent of a compound that is named as a salt.

Nc1c(C(=O)c2ccc(C=CCN3CCOCC3)cc2)cnn1-c1ccc(F)cc1 [compound 2] | 166.7 to 168.2 °C

What does the record list as melting point for Nc1c(C(=O)c2cccc(CCCN3CCS(=O)(=O)CC3)c2)cnn1-c1ccc(F)cc1F [compound 92] ? 123.8 to 125.9 °C

What does the record list as melting point for Nc1c(C(=O)c2cccc(-c3cccnc3)c2)cnn1-c1ccc(S(N)(=O)=O)cc1 (as salt: HCl) [compound 68] ? > 300 °C

What does the record list as melting point for Nc1c(C(=O)c2cccc(OCCN3CCOCC3)c2)cnn1-c1ccccc1F [compound 97] ? 130.8 to 135.1 °C

* * *

EXPERIMENTAL ENDPOINT: melting point

// worked examples, melting point included
Nc1c(C(=O)c2cccc(CCc3cccnc3)c2)cnn1-c1ccc(F)cc1F | 153.4 to 153.7 °C
Nc1c(C(=O)c2cccc(OCC(=O)O)c2)cnn1-c1ccc(F)cc1 | 215.9 to 216.2 °C
Nc1c(C(=O)c2cccc(CN3CCC(O)CC3)c2)cnn1-c1ccc(F)cc1F | 141.5 to 145.5 °C
CC(C)(O)C#Cc1cccc(C(=O)c2cnn(-c3ccc(F)cc3)c2N)c1 | 152.6 to 153.1 °C
CC1(C)OCC(COc2cccc(C(=O)c3cnn(-c4ccc(F)cc4)c3N)c2)O1 (stereo in doubt) | 78.3 to 80 °C
Nc1c(C(=O)c2cccc(OCc3ccccn3)c2)cnn1-c1ccc(F)cc1 | 176.1 to 177.3 °C
CCNC(=O)Oc1cccc(C(=O)c2cnn(-c3ccc(F)cc3)c2N)c1 | 201.2 to 202.8 °C
CCC1(CC)OC[C@H](COc2cccc(C(=O)c3cnn(-c4ccc(F)cc4)c3N)c2)O1 | 74.1 to 75.7 °C
Nc1c(C(=O)c2cccc(OCC(=O)N3CCOCC3)c2)cnn1-c1ccc(F)cc1 | 124.3 to 126.6 °C
Nc1c(C(=O)c2cccc(OCCn3ncccc3=O)c2)cnn1-c1ccc(F)cc1 | 174.5 to 178 °C

What does the record list as melting point for Nc1c(C(=O)c2cccc(N3CCC(Cc4ccccc4)CC3)c2)cnn1-c1ccc(F)cc1 ? 156.2 to 160.9 °C

What does the record list as melting point for CC(C)NC(=O)Oc1cccc(C(=O)c2cnn(-c3ccc(F)cc3)c2N)c1 ? 225.2 to 230.1 °C

What does the record list as melting point for Nc1c(C(=O)c2cccc(OCCN3CCOCC3)c2)cnn1-c1c(Cl)cccc1Cl ? 144.2 to 145.1 °C

What does the record list as melting point for Nc1c(C(=O)c2cccc(OC[C@@H]3COC(=O)O3)c2)cnn1-c1ccc(F)cc1 ? 144.3 to 144.9 °C

What does the record list as melting point for Cc1ccccc1-n1ncc(C(=O)c2cccc(C(O)CO)c2)c1N (stereo not drawn) ? 83 to 85.5 °C

* * *

Listed here: items and their measured melting point.

Nc1c(C(=O)c2cccc(CCC3(O)CCCC3)c2)cnn1-c1ccc(F)cc1F | 120.3 to 121 °C

What does the record list as melting point for CCC1(C)OC[C@H](COc2cccc(C(=O)c3cnn(-c4ccc(F)cc4)c3N)c2)O1 (stereo partly shown) ? 81.1 to 83 °C

What does the record list as melting point for Nc1c(C(=O)c2cccc(C(O)CO)c2)cnn1-c1ccc(F)cc1F (stereo not shown) ? 59 to 64 °C

What does the record list as melting point for Nc1c(C(=O)c2cccc(C#Cc3cccnc3)c2)cnn1-c1ccc(F)cc1F ? 183.5 to 184 °C

* * *

ASSAYED TARGET: p38 MAP kinase (Homo sapiens)
Construct: made in house; host or cells: E. coli (co-expressed with SEK-1 and MEKK to obtain the phosphorylated form)
Sequence (Q16539 whole entry): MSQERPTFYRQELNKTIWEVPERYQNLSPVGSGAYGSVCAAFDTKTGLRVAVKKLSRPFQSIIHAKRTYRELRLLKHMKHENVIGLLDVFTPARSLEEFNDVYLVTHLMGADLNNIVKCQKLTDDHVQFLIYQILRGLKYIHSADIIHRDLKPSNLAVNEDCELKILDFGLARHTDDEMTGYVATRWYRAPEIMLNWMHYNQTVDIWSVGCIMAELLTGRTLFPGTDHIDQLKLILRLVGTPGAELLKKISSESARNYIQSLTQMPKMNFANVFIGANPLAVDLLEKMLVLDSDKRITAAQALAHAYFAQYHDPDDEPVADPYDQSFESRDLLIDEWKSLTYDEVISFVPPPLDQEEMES
TEST NAME: Inhibition of p-38 (MAP) kinase, in vitro assay (transfer of γ-33P from ATP to Myelin Basic Protein)
Format: biochemical
CONDITION LABEL: phosphorylated recombinant p38 MAP kinase, MBP substrate, γ-33P-ATP, 30° C.; read-out: IC50, μM (p-38 inhibitory activity)
Where a name gives a salt, the structure may show the parent alone.
Mark each entry 1.0 if its IC50 sits below 2 µM, and 0.0 for all others.

Nc1cccc(C(=O)c2cnn(-c3ccc(F)cc3)c2N)c1 [compound 43] | 0.0
Nc1c(C(=O)c2cccc(C#CCN3CCOCC3)c2)cnn1-c1ccc(F)cc1 [compound 3] | 1.0
N#CCCCOc1cccc(C(=O)c2cnn(-c3ccc(F)cc3)c2N)c1 [compound 27] | 0.0
Nc1c(C(=O)c2cccc(OCCCN3CCCCC3)c2)cnn1-c1ccc(F)cc1 [compound 21] | 0.0
Nc1c(C(=O)c2ccc(C=CCN3CCOCC3)cc2)cnn1-c1ccc(F)cc1 [compound 2] | 0.0

Please indicate whether the reported IC50 of Nc1c(C(=O)c2ccc(CCCO)cc2)cnn1-c1ccccc1 [compound 1] is strictly below 2 µM. 1.0

Please indicate whether the reported IC50 of Nc1c(C(=O)c2cccc(OCCN3CCOCC3)c2)cnn1-c1ccc(F)cc1 [compound 14, hydrochloride] is strictly below 2 µM. 1.0

Please indicate whether the reported IC50 of Nc1c(C(=O)c2cccc(N3CCC(Cc4ccccc4)CC3)c2)cnn1-c1ccc(F)cc1 [compound 33] is strictly below 2 µM. 1.0

Please indicate whether the reported IC50 of CN1CCN(C(=O)COc2cccc(C(=O)c3cnn(-c4ccc(F)cc4)c3N)c2)CC1 [compound 38] is strictly below 2 µM. 0.0

* * *

Listed here: items and their measured melting point.
Structures can show the parent of a compound that is named as a salt.

// worked examples, melting point included
Nc1cccc(C(=O)c2cnn(-c3ccc(F)cc3)c2N)c1 [compound 43] | 165.2 to 165.8 °C
Nc1c(C(=O)c2cccc(C=CCN3CCOCC3)c2)cnn1-c1ccc(F)cc1 [compound 4] | 161.6 to 162.8 °C

What does the record list as melting point for COc1cccc(-n2ncc(C(=O)c3cccc(-c4cccnc4)c3)c2N)c1 (as salt: HCl) [compound 66] ? 256.1 to 256.5 °C

What does the record list as melting point for CN1CCN(CCCc2cccc(C(=O)c3cnn(-c4ccc(F)cc4)c3N)c2)CC1 (as salt: HCl) [compound 30] ? 254.5 to 254.9 °C

What does the record list as melting point for Nc1c(C(=O)c2cccc(CN3CCCCC3)c2)cnn1-c1ccc(F)cc1F [compound 86] ? 116.6 to 118.6 °C

What does the record list as melting point for Nc1c(C(=O)c2cccc(C#CC3(O)CCCC3)c2)cnn1-c1ccc(F)cc1F [compound 94] ? 176.8 to 177.1 °C

What does the record list as melting point for Nc1c(C(=O)c2cccc(CCCN3CCCCC3)c2)cnn1-c1ccc(F)cc1 (as salt: HCl) [compound 32] ? 227.1 to 277.7 °C

What does the record list as melting point for CC(=O)OCC(COc1cccc(C(=O)c2cnn(-c3ccc(F)cc3)c2N)c1)OC(C)=O (stereo in doubt) [compound 165] ? 91.4 to 92.7 °C

* * *

ASSAYED TARGET: p38 MAP kinase (Homo sapiens)
Construct: made in house; host or cells: E. coli (co-expressed with SEK-1 and MEKK to obtain the phosphorylated form)
TEST NAME: Inhibition of p-38 (MAP) kinase, in vitro assay (transfer of γ-33P from ATP to Myelin Basic Protein)
Type: biochemical
CONDITION LABEL: phosphorylated recombinant p38 MAP kinase, MBP substrate, γ-33P-ATP, 30° C.; read-out: IC50, μM (p-38 inhibitory activity)
Where a name gives a salt, the structure may show the parent alone.
EXPERIMENTAL ENDPOINT: IC50 (µM)
Field: numeric (µM). Do not append units.

// worked examples, IC50 included
Nc1c(C(=O)c2cccc(C=CCN3CCOCC3)c2)cnn1-c1ccc(F)cc1 [compound 4] | 6.18
Nc1c(C(=O)c2cccc(CCS(N)(=O)=O)c2)cnn1-c1ccc(F)cc1 [compound 50] | 1.25
Nc1c(C(=O)c2cccc(CCCN3CCOCC3)c2)cnn1-c1ccc(F)cc1 [compound 6, hydrochloride] | 1.74

Now, please, on to the next molecule.
What does the record list as IC50 for Nc1c(C(=O)c2cccc(C#CCN3CCCCC3)c2)cnn1-c1ccc(F)cc1 [compound 9] ? 1.32

* * *

Counter-ions that a name gives are not always drawn.
EXPERIMENTAL ENDPOINT: melting point

Cc1ccc(-n2ncc(C(=O)c3cccc(-c4cccnc4)c3)c2N)cc1 (as salt: HCl) | 281.3 to 282.8 °C
COC(=O)OCC(COc1cccc(C(=O)c2cnn(-c3ccc(F)cc3)c2N)c1)OC(=O)OC (stereo in doubt) | 62 to 65 °C
Nc1c(C(=O)c2ccc(CCCO)cc2)cnn1-c1ccccc1 | 148 to 152.5 °C

Now, please, on to the next compound.
What does the record list as melting point for Nc1c(C(=O)c2cccc(CN3CCOCC3)c2)cnn1-c1ccc(F)cc1F ? 127.3 to 128.5 °C
